Source listed as patent US20040018971A1.

target: HLA-A*2401 (human); experiment: inhibition of 125I probe peptide binding to purified HLA; IC50 standard/IC50 test
Category scheme (relative binding ratio): range A = under 0.0005, range B = from 0.0005 up to 0.01, range C = 0.01 and over

// known answers, use as guide
binder	label
VWSYGVTVW [HER2/neu 905-913]	range C
SYGVTVWEL [HER2/neu 907-915]	range C
TFGAKPYDGI [HER2/neu 917-926]	range A

# input Tag the class for AFSPAFDNL [HER2/neu 1212-1220]
# output range B

# input Tag the class for CYGLGMEHL [HER2/neu 342-350]
# output range C

# input Tag the class for LFRNPHQALL [HER2/neu 485-494]
# output range B

# input Tag the class for AYSLTLQGLGI [HER2/neu 440-450]
# output range C
